- PROCEDURE_TEXT: Permeability of the compound at pH 7.4 by PAMPA method
- Assay type: ADME
- ASSAY_CONDITIONS: read-out: permeability
QUANTITY_NAME: Papp

{"columns": ["GIVEN_SMILES", "QUANTITY_NAME", "RESULT"],
 "data": [
  ["O=C(NCCN1CCCC1)c1ccc(-c2cnc3ccc(NCC4CC4)nn23)cc1", "Papp", "> 50 ×10⁻⁶ cm/s"]
]}

INPUT: Return reported Papp; argument: O=C(NC[C@@H]1C[C@@H](F)CN1)c1ccc(-c2cnc3ccc(NC4CCC4)nn23)cc1F
OUTPUT: > 50 ×10⁻⁶ cm/s

INPUT: // query Papp value for entry O=C(NC[C@@H]1C[C@@H](F)CN1)c1ccc(-c2cnc3ccc(NC4CCCC4)nn23)cc1F
OUTPUT: > 50 ×10⁻⁶ cm/s

INPUT: Field request: Papp | item: CCCNc1ccc2ncc(-c3ccc(C(=O)NC[C@@H]4C[C@@H](F)CN4)c(F)c3)n2n1
OUTPUT: > 50 ×10⁻⁶ cm/s

INPUT: What measured Papp goes with CCCCNc1ccc2ncc(-c3ccc(C(=O)NC[C@@H]4C[C@@H](F)CN4)c(F)c3)n2n1 ?
OUTPUT: > 50 ×10⁻⁶ cm/s

INPUT: Given the compound O=C(NC[C@@H]1C[C@@H](F)CN1)c1ccc(-c2cnc3ccc(NCC4CC4)nn23)cc1F , what is its reported Papp?
OUTPUT: > 50 ×10⁻⁶ cm/s

INPUT: Which Papp reading was recorded for the compound O=C(NC[C@@H]1C[C@@H](F)CN1)c1ccc(-c2cnc3ccc(NCCCCF)nn23)cc1F ?
OUTPUT: > 50 ×10⁻⁶ cm/s

INPUT: For the compound shown here, CSCCNc1ccc2ncc(-c3ccc(C(=O)NC[C@@H]4C[C@@H](F)CN4)c(F)c3)n2n1 , give the reported Papp.
OUTPUT: > 50 ×10⁻⁶ cm/s

INPUT: Would you kindly share the measured Papp for CN(C)CCNC(=O)c1ccc(-c2cnc3ccc(NCC4CC4)nn23)cc1F ?
OUTPUT: > 50 ×10⁻⁶ cm/s

INPUT: May I ask what Papp has been recorded for CCCCCNc1ccc2ncc(-c3ccc(C(=O)NC[C@@H]4C[C@@H](F)CN4)c(F)c3)n2n1 ?
OUTPUT: > 50 ×10⁻⁶ cm/s

INPUT: Using the record for O=C(NCCN1CCCC1)c1ccc(-c2cnc3ccc(NCC4CC4)nn23)cc1F , report its Papp.
OUTPUT: > 50 ×10⁻⁶ cm/s
